Test system: castrated male Sprague Dawley rats
measurement_notes: Ventral Prostate and Seminal Vesicle Weight In Vivo Assay; also: key: active: the non weight adjusted prostate weight was ≦40 mg or the % Inhibition prostate weight, body weight adjusted was ≧40%@2 mg/day dosage; inactive: did not meet the specified criteria defined above
assay_setup: inhibition of testosterone-enhanced prostate weight; immature castrated rats, once daily for five days, usually orally 40 mg/kg, with testosterone propionate 2 mg/kg s.c.
quantity_measured: Activity

> print(dat)
                                    compound                  measurement.target  quantity.measured  reported
 1  COC(C)(CC#N)c1nc2cc(Cl)c(Cl)cc2n1C (stereo not drawn)  castrated male Sprague Dawley rats           Activity    active
 2        Cc1cc2[nH]c(C(=O)C(F)(F)F)nc2cc1Cl  castrated male Sprague Dawley rats           Activity    active
 3  O=C(Cn1c(CC(F)(F)F)nc2cc(Cl)c(Cl)cc21)c1ccc2c(c1)OCCO2  castrated male Sprague Dawley rats           Activity  inactive
 4  CCn1c(C(C)(O)CC#N)nc2cc(Cl)c(Cl)cc21 (stereo not drawn)  castrated male Sprague Dawley rats           Activity    active
 5  FC(F)(F)Cc1nc2cc(Cl)c(Cl)cc2n1Cc1ccc(-n2cccn2)cc1  castrated male Sprague Dawley rats           Activity  inactive
 6  O=C(Cn1c(CC(F)(F)F)nc2cc(Cl)c(Cl)cc21)c1cccs1  castrated male Sprague Dawley rats           Activity    active
 7  CCn1c(C(C)(O)CS(=O)(=O)CC)nc2cc(Cl)c(Cl)cc21 (stereo not drawn)  castrated male Sprague Dawley rats           Activity    active
 8  COc1ccc(Cn2c(CC(F)(F)F)nc3cc(Cl)c(Cl)cc32)cc1  castrated male Sprague Dawley rats           Activity    active
 9  Cc1cc2[nH]c(C(O)C(F)(F)F)nc2cc1Cl (stereo not drawn)  castrated male Sprague Dawley rats           Activity  inactive
10  FC(F)(F)Cc1nc2cc(Cl)c(Cl)cc2n1Cc1cccc(OC(F)(F)F)c1  castrated male Sprague Dawley rats           Activity  inactive
11  FC(F)(F)Cc1nc2cc(Cl)c(Cl)cc2n1Cc1cccc(Cl)c1  castrated male Sprague Dawley rats           Activity    active
12  CCn1c(C(C)(O)CSCC(F)(F)F)nc2cc(Cl)c(Cl)cc21 (stereo not drawn)  castrated male Sprague Dawley rats           Activity  inactive
13  FC(F)(F)Cc1nc2cc(Cl)c(Cl)cc2n1Cc1ccc(-c2csnn2)cc1  castrated male Sprague Dawley rats           Activity  inactive
14   FC(F)(F)Cc1nc2cc(Cl)c(Cl)cc2n1Cc1ccncc1  castrated male Sprague Dawley rats           Activity    active
15  FC(F)(F)Cc1nc2cc(Cl)c(Cl)cc2n1Cc1ccccc1Br  castrated male Sprague Dawley rats           Activity    active
16         FC(F)(F)Cc1nc2cc(Cl)c(Cl)cc2[nH]1  castrated male Sprague Dawley rats           Activity    active
17  Cc1onc(-c2ccccc2)c1C(=O)Cn1c(CC(F)(F)F)nc2cc(Cl)c(Cl)cc21  castrated male Sprague Dawley rats           Activity  inactive
18  CO[C@@](C(=O)OC(c1nc2cc(Cl)c(Cl)cc2[nH]1)C(F)(F)F)(c1ccccc1)C(F)(F)F (stereo partly drawn)  castrated male Sprague Dawley rats           Activity    active
